Source of measurements: ChEMBL document CHEMBL5625183

# tested system: Cyclin-dependent kinase 12 (Homo sapiens)
# Sequence (Q9NYV4 whole entry, looked up): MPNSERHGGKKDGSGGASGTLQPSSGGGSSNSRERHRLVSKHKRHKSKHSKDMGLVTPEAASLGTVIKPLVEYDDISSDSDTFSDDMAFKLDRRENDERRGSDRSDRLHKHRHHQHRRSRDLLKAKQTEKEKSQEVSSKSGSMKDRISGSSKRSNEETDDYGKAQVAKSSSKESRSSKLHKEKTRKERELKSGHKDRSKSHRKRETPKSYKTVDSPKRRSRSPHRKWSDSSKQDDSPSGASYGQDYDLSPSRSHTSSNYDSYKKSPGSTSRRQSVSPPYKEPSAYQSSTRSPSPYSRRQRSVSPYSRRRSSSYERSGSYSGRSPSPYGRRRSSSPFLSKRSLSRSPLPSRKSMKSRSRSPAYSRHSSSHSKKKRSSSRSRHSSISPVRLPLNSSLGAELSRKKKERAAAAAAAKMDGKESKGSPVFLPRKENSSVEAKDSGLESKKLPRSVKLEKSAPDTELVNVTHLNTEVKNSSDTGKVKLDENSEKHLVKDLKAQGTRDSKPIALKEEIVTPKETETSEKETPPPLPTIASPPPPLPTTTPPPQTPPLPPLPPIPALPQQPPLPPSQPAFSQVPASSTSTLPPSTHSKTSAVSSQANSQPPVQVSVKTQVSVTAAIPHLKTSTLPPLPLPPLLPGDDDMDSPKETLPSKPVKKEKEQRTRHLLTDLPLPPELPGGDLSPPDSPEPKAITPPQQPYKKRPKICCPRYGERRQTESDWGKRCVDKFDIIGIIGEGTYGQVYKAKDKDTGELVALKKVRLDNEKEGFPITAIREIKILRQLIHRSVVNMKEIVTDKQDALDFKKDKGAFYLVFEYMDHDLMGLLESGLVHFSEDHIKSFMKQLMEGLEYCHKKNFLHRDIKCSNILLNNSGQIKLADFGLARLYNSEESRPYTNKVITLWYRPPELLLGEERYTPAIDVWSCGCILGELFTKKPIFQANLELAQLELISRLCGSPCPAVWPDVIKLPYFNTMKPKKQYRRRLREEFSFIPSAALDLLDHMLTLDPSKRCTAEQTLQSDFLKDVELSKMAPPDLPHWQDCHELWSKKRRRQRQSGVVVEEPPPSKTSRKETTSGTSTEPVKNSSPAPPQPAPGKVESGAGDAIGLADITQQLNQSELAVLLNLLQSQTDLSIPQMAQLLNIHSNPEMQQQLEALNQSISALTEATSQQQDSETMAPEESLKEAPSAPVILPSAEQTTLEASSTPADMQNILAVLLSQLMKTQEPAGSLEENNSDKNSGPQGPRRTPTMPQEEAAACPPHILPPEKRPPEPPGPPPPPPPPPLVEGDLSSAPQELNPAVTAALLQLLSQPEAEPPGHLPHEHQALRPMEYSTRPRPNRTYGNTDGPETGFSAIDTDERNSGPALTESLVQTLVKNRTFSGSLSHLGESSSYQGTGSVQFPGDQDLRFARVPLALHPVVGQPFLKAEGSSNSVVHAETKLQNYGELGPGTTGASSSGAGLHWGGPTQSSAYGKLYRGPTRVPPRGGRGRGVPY
# test method notes: Inhibition of CDK12 (unknown origin) at 1 uM in presence of ATP by kinase-glo plus luminescent assay relative to control
quantity: inhibition (%)

NC(=O)c1cccc2[nH]c(NC(=O)c3cccc(C(=O)N4CCN(c5ccc(C(F)(F)F)cn5)CC4)c3)nc12: 46.4
NC(=O)c1cccc2[nH]c(NC(=O)c3ccc(C(=O)N4CCN(c5ncc(I)cn5)CC4)cc3)nc12: 45.2
COc1cnc(NC2CCN(C(=O)c3ccc(C(=O)Nc4nc5c(C(N)=O)cccc5[nH]4)cc3)CC2)nc1: 31.5
CN(C)C/C=C/C(=O)Nc1ccc(C(=O)N2CCC[C@@H](Nc3ncc(Cl)c(-c4c[nH]c5ccccc45)n3)C2)cc1: 98.6
NC(=O)c1cccc2[nH]c(NC(=O)c3ccc(CN4CCC(Nc5ncc(Br)cn5)CC4)cc3)nc12: 45.4
NC(=O)c1cccc2[nH]c(NC(=O)c3cccc(C(=O)N4CCC(Nc5ncc([N+](=O)[O-])cn5)CC4)c3)nc12: 5.4
NC(=O)c1cccc2[nH]c(NC(=O)c3ccc(C(=O)N4CCN(c5ncc(Br)cn5)CC4)cc3)nc12: 41.6
NC(=O)c1cccc2[nH]c(NC(=O)c3ccc(S(=O)(=O)N4CCC(Nc5ncc(C(F)(F)F)cn5)CC4)cc3)nc12: 69.9
NC(=O)c1cccc2[nH]c(NC(=O)c3ccc(CN4CCC(Nc5ncc(I)cn5)CC4)cc3)nc12: 40.8
COc1cnc(NC2CCN(C(=O)c3cccc(C(=O)Nc4nc5c(C(N)=O)cccc5[nH]4)c3)CC2)nc1: 36.4

(A) NC(=O)c1cccc2[nH]c(NC(=O)c3ccc(CN4CCC(Nc5ncc(C(F)(F)F)cn5)CC4)cc3)nc12
(B) NC(=O)c1cccc2[nH]c(NC(=O)c3cccc(C(=O)N4CCC(Nc5ncc(I)cn5)CC4)c3)nc12
(C) Cc1cnc(NC2CCN(C(=O)c3cccc(C(=O)Nc4nc5c(C(N)=O)cccc5[nH]4)c3)CC2)nc1
(Q) # sort list by recorded inhibition, greatest to least In plain terms: list the labels in the order you were asked to.
(A) B, A, C
(B: 77.3%, A: 34%, C: 1.3%)

(A) N#Cc1cnc(NC2CCN(C(=O)c3ccc(C(=O)Nc4nc5c(C(N)=O)cccc5[nH]4)cc3)CC2)nc1
(B) NC(=O)c1cccc2[nH]c(NC(=O)c3ccc(C(=O)N4CCC(Nc5ncc(Cl)cn5)CC4)cc3)nc12
(Q) Between A and B , whose measured inhibition reads higher? Answer by stating the label of the chosen item.
(A) B
(B: 50.7%, A: 27.5%)
